Would you mind telling me the reported T/C of each entry?
# Tested on: P388 leukemia ip, CD2F1 mice, survival T/C
# Assay explanation: NCI In Vivo Anticancer Drug Screen. Data for tumor model P388 Leukemia (intraperitoneal) in CD2F1 (CDF1) mice
# Protocol conditions: endpoint: median survival time; dose: 12.5 mg/kg/injection; schedule: Q01DX009 (ip); vehicle: Klucel (hydroxypropylcellulose) (HPC); higher = longer survival
Inconclusive results and toxic doses are left out.

Write down measured T/C (P388 leukemia ip, CD2F1 mice, survival T/C) for this molecule. CCCCCCCCCCCCCCCC[N+]1(CC)CCOCC1 (tested in a mixture with another compound)
115 % of control

Report measured T/C on P388 leukemia ip, CD2F1 mice, survival T/C; entry: C[N+](C)(C)Cc1ccccc1
93 % of control

Answer briefly: T/C recorded on P388 leukemia ip, CD2F1 mice, survival T/C for CCOC(=O)c1no[n+]([O-])c1C(=O)OCC
105 % of control

// output T/C; input CCCN1C[C@H](CSC)C[C@@H]2c3cccc4[nH]cc(c34)C[C@H]21 ; system P388 leukemia ip, CD2F1 mice, survival T/C
101 % of control

Please report T/C with P388 leukemia ip, CD2F1 mice, survival T/C for item COc1cc2cc[n+](C)c(Cc3ccccc3)c2cc1OC .
114 % of control

// fetch T/C; item: CCCCCCCCCCCCCCCC(=O)N(CCC#N)C(C)(C)CCC(C)(C)N(CCC#N)C(=O)CCCCCCCCCCCCCCC ; system: P388 leukemia ip, CD2F1 mice, survival T/C
99 % of control

* * *

# System: P388 leukemia ip, CD2F1 mice, survival T/C
# Assay explanation: NCI In Vivo Anticancer Drug Screen. Data for tumor model P388 Leukemia (intraperitoneal) in CD2F1 (CDF1) mice
# Protocol conditions: endpoint: median survival time; dose: 50.0 mg/kg/injection; schedule: Q01DX009 (ip); vehicle: water; higher = longer survival
Toxic doses and inconclusive results are not listed.
Result type: T/C

// fetch T/C given entry OC1CCC2SC1CCC2O (stereo not given)
95 % of control

// fetch T/C given entry C/C(=N\O)c1ccccn1
98 % of control

Identify the reported T/C for the following entry. COc1ccc(Cc2nc(C)cc3cc(OC)c(OC)cc23)cc1OC
111 % of control

Given CS(=O)CSCC(N)C(=O)O (stereo not given) , respond with its T/C.
100 % of control

Read the entry COc1cccc2c1C(=O)c1c(O)c3c(c(O)c1C2=O)C[C@@](O)(/C(CO)=N/NC(=O)c1ccc(Cl)c(Cl)c1)C[C@@H]3OC1CC(NC(=S)Nc2ccc(F)cc2)C(O)C(C)O1 (stereo not given in full) and write its reported T/C.
91 % of control

* * *

# Tested on: P388 leukemia ip, CD2F1 mice, survival T/C
# Assay explanation: NCI In Vivo Anticancer Drug Screen. Data for tumor model P388 Leukemia (intraperitoneal) in CD2F1 (CDF1) mice
# Protocol conditions: endpoint: median survival time; dose: 25.0 mg/kg/injection; schedule: Q01DX009 (ip); vehicle: saline with Tween-80
Inconclusive results and toxic doses are left out. How the source made its calls: active means survival T/C of 150% or more; inactive means T/C below 125% in these data.
Pick one and only one: 1 (yes) = active, 0 (no) = inactive

Query: recorded result category for COc1ccccc1N=NC(C#N)C(N)=O (configuration not stated) in this test
0 (no)

State the result this test recorded for C[n+]1cccc(SC2CCC3CC4CC3C2C4)c1 (configuration not stated) .
0 (no)

Dear colleague, could you share the recorded outcome for COc1cc2c(cc1O)C(CSC)Cc1cc3c(cc1N(C)CC2)OCO3 (configuration not stated) when you have a moment?
0 (no)

Each compound tested received a call. Report the one for CC(CCOc1ccc2ccc(=O)oc2c1)C1=CC(=O)C(C)(C)O1 (configuration not stated) .
0 (no)

How was CCOC(=O)c1ccc[nH]1 classified in this test?
0 (no)

What call does the record list for CN(C)c1ccc(CN(Cc2ccccc2)CC(O)c2ccccc2)cc1 (configuration not stated) ?
0 (no)

Give the logged outcome of this assay for the following compound: Cc1cc(=O)[nH]c2[nH][nH]c(=O)c12
0 (no)

Record lookup: outcome of this test for Nc1nc(-c2c[nH]c(=O)[nH]c2=O)cs1 ?
0 (no)

Kindly provide the recorded test outcome for the following compound: COc1cc2c(c(OC)c1OC)-c1cc3c(cc1CC1COC(=O)C1C2)OCO3 (configuration not stated)
0 (no)

Each compound tested received a call. Report the one for CSc1ncnc2c1ncn2C1OC(CO)C(O)C1O (configuration not stated) .
0 (no)

Please indicate how the test categorized O=[N+]([O-])c1ccc2nc(CCl)[nH]c2c1 .
0 (no)

What did this assay record as the result for CNC(=O)OCCN(CCOC(=O)NC)C(=O)N1c2ccccc2Sc2ccccc21 ?
0 (no)

Tell me the recorded outcome of this test for COC(=O)/C=C\C=C(\CBr)C(=O)OC .
0 (no)

Kindly provide the recorded test outcome for the following compound: O=C(CNC(=O)c1ccccc1)N/N=C/c1ccc2c(c1)OCO2
0 (no)

Hey, what did the test say about COC(=O)C1CCCC(Sc2ccccc2)C1=O (configuration not stated) ?
0 (no)

Dear colleague, could you share the recorded outcome for CC1(C)C(O)C(C)(C)C1O (configuration not stated) when you have a moment?
0 (no)

Which outcome was assigned to O=C1NC(=O)C2CCCCC12 (configuration not stated) in this test?
0 (no)

I would be grateful if you could indicate the recorded call for NNC(=O)C(N)=O .
0 (no)

What did this assay record as the result for C/C(=N\NC(N)=O)c1cccc(/C(C)=N/NC(N)=O)n1 ?
0 (no)

Outcome? Cc1cc(=O)n2c3c(c4c(cc13)c(CN(C)C)cc(=O)n4C)OC2
1 (yes)

Entry CCCCCCCCCc1ccc(OCCOCCOCCOCCOCCOCCOCCOCCOCCOC(C)N2CCCC2=O)cc1 (configuration not stated) : call = ?
0 (no)

For COc1ccccc1-c1cn(O)c(=N)c(C#N)n1 , which call appears in the assay record?
0 (no)

Per the assay record, what outcome was assigned to NC(=S)N1CCCC1 ?
0 (no)

Tell me the assay call for CC1OC(OC2C(O[C@H]3CC[C@@]4(C)C(=CC[C@H]5[C@@H]6C[C@@H]7O[C@]8(CC[C@H](C)CN8)[C@@H](C)[C@@H]7[C@@]6(C)CC[C@@H]54)C3)OC(CO)C(O)C2OC2OC(CO)C(O)C(O)C2O)C(O)C(O)C1O (some centres not stated) please.
0 (no)

Lab log entry: Clc1ccc2nc(CBr)cnc2c1 — outcome as called in the assay?
0 (no)

Please let me know the test result on file for CCOCCSc1ccccc1 .
0 (no)

Status in this test for Cn1c([N+](=O)[O-])cnc1/C=C1/Cc2cc(OCCN3CCCCCC3)ccc2C1=O ?
0 (no)

* * *

# Tested on: P388 leukemia ip, CD2F1 mice, survival T/C
# Assay explanation: NCI In Vivo Anticancer Drug Screen. Data for tumor model P388 Leukemia (intraperitoneal) in CD2F1 (CDF1) mice
# Protocol conditions: endpoint: median survival time; dose: 25.0 mg/kg/injection; schedule: Q04DX003 (ip); vehicle: saline with Tween-80; higher = longer survival
Inconclusive results and toxic doses are left out.
Answer each item with its documented T/C.

Answer with the recorded T/C for the compound listed here: CCCCCCCCCCCCCCC1(O)OC(=O)C(C)=C1C (configuration not stated)
103 % of control

For the compound Nc1cccc(NC=O)c1 , give its measured T/C value.
110 % of control

Return reported T/C. Input compound: CC1CCC2CC(=O)NC(=O)CC12 (configuration not stated)
104 % of control

Provide only the value of recorded T/C for Nc1nc2c(ncn2C2OC(CO)C(O)C2N)c(=O)[nH]1 (configuration not stated)
103 % of control

Identify the reported T/C for the following entry. c1cc2c(cc1NC1=NCCO1)CCC2
100 % of control

Hello, please tell me recorded T/C for this one: C/C(N)=C\C#N
100 % of control

Assign T/C to the following record: CCOC(=O)C(C(=O)OCC)c1nc[nH]c1[N+](=O)[O-]
108 % of control

* * *

Please respond with reported T/C for every item in the list.
# Test system: P388 leukemia ip, CD2F1 mice, survival T/C
# Assay explanation: NCI In Vivo Anticancer Drug Screen. Data for tumor model P388 Leukemia (intraperitoneal) in CD2F1 (CDF1) mice
# Protocol conditions: endpoint: median survival time; dose: 120.0 mg/kg/injection; schedule: Q01DX005 (ip); vehicle: saline with Tween-80; higher = longer survival
Inconclusive results and toxic doses are left out.

Identify measured T/C obtained with P388 leukemia ip, CD2F1 mice, survival T/C for Cc1ccc(N2CC(O)CN(c3ccc(C)cc3)CC(O)C2)cc1 (stereo not drawn) .
97 % of control

Report measured T/C on P388 leukemia ip, CD2F1 mice, survival T/C; entry: O=c1ccnc2ccccn12
107 % of control

System P388 leukemia ip, CD2F1 mice, survival T/C. Read-out T/C. Item Cc1ccnc(NS(=O)(=O)c2ccc(N=Cc3c4ccccc4nc4cc(Cl)ccc34)cc2)n1 . Report value.
93 % of control

// output T/C; input O=C(O)C12CCC(c3ccccc31)c1ccccc12 ; system P388 leukemia ip, CD2F1 mice, survival T/C
107 % of control

Give the observed T/C of Cc1nc(Nc2ccccc2)c(C#N)c(=O)[nH]1 for P388 leukemia ip, CD2F1 mice, survival T/C.
86 % of control

Look up and report measured T/C (P388 leukemia ip, CD2F1 mice, survival T/C) for the following molecule: COc1cc(C2C3=C(CCCC3=O)Oc3cc4c(cc32)OCO4)cc(OC)c1OC (stereo not drawn)
90 % of control

# lookup: P388 leukemia ip, CD2F1 mice, survival T/C T/C, key = CN1CCOC(c2ccccc2)c2ccsc2CC1 (stereo not drawn)
93 % of control

Look up P388 leukemia ip, CD2F1 mice, survival T/C data: T/C of NNC(=O)CNc1ccc(F)c(Cl)c1 , then report it.
104 % of control

Give measured T/C for NCCCn1[nH]c(=O)c2cccnc2c1=O (P388 leukemia ip, CD2F1 mice, survival T/C).
100 % of control

Determine reported T/C for COc1ccc(S(=O)(=O)c2coc3ccc(C)cc3c2=O)cc1 ; test system: P388 leukemia ip, CD2F1 mice, survival T/C.
96 % of control

State, for P388 leukemia ip, CD2F1 mice, survival T/C, measured T/C of the molecule listed here: O=C1c2ccccc2C(=O)N1Cc1ccc(CCl)s1
119 % of control

Fetch value of T/C on P388 leukemia ip, CD2F1 mice, survival T/C for CC(NC(=O)C(=O)c1c[nH]c2ccccc12)C(=O)O (stereo not drawn) .
96 % of control

Recall the reported T/C of N=C1N=Nc2nc(C(C(=O)c3cccs3)c3nc4n(c3O)C(=N)N=N4)c(O)n21 (stereo not drawn) on P388 leukemia ip, CD2F1 mice, survival T/C and write it down.
100 % of control

Just for reference, PubChem BioAssay AID330 is where these values come from.
